Experiment: Selectivity index, ratio of toxicity against Huh7 ET cells to viral activity against HCV
Type: functional
metric: Selectivity index

Some molecules with recorded Selectivity index:
Ask: Item CCCCCCCCNc1nc(=O)c2c(nc(C#CCCO)n2Cc2ccc(OC)cc2)c(=O)[nH]1 has what recorded Selectivity index?
Result: 0.578

Ask: Moving on to the next molecule: CCCCCCCCNc1nc(=O)c2c(nc(Br)n2Cc2ccc(OC)cc2)c(=O)[nH]1
Result: 2.155

Ask: Moving on to the next molecule: NC(=O)c1ncn([C@@H]2O[C@H](CO)[C@@H](O)[C@H]2O)n1 [RIBAVIRIN]
Result: 0.42

Ask: Moving on to the next molecule: CCCCCCCCNc1nc(=O)c2c(nc(-c3ccccc3)n2Cc2ccc(OC)cc2)c(=O)[nH]1
Result: 0.932

---
Ask: Item CCCCCCCCNc1nc(=O)c2c(nc(-c3ccc(OC)cc3)n2Cc2ccc(OC)cc2)c(=O)[nH]1 has what recorded Selectivity index?
Result: 1.463

* * *

Assay: Cytotoxicity against Huh7 ET cells assessed as beta actin level relative to control
Assay type: cell-based
Set-up: concentration or dose not given beside the values
Details: human
metric: Activity (%)
Express your answer in %, writing the number without its unit.

Some compounds with recorded Activity:
Ask: Item CCCCCCCCNc1nc(=O)c2c(nc(C#CCCO)n2Cc2ccc(OC)cc2)c(=O)[nH]1 has what recorded Activity?
Result: 52

Ask: Moving on to the next compound: CCCCCCCCNc1nc(=O)c2c(nc(Br)n2Cc2ccc(OC)cc2)c(=O)[nH]1
Result: 69

Ask: Moving on to the next compound: NC(=O)c1ncn([C@@H]2O[C@H](CO)[C@@H](O)[C@H]2O)n1 [RIBAVIRIN]
Result: 12

Ask: Moving on to the next compound: CCCCCCCCNc1nc(=O)c2c(nc(-c3ccccc3)n2Cc2ccc(OC)cc2)c(=O)[nH]1
Result: 82

---
Ask: Item CCCCCCCCNc1nc(=O)c2c(nc(-c3ccc(OC)cc3)n2Cc2ccc(OC)cc2)c(=O)[nH]1 has what recorded Activity?
Result: 79

Sourced from ChEMBL document CHEMBL1147191
